target: DNA polymerase iota (Homo sapiens); experiment: qHTS for Inhibitors of Polymerase Iota; details: Pol iota fluorescent replication assay, 10 min; series mostly up to 115 µM
Out of some 390,000 compounds screened, about 4,000 (1%) were called active. Roughly 7% stayed inconclusive and do not appear here. The call rests on the fitted dose curve; in most records, active means well fitted inhibition curve with a large enough effect; inconclusive means small, poorly fitted or top-dose-only effect, or another doubt; inactive means no such curve, though single readings can be large or run the other way. For the sample, actives were picked, then their nearest neighbours and some compounds at random.
Write down one outcome, taken from TRUE = active, FALSE = inactive

Enquiry: # lookup: test call for Oc1ccc(N=Cc2sc3ccccc3c2Cl)cc1
Return: TRUE

Enquiry: Which outcome was entered for the molecule CCN(CC)c1cc(NC2CCCCC2)c2c3c(onc13)-c1ccccc1C2=O in this test?
Return: FALSE

Enquiry: Any idea what this test logged for O=C(CCl)Nc1ccc(Sc2ccc(NC(=O)CCl)cc2)cc1 ?
Return: TRUE

Enquiry: Kindly provide the recorded test outcome for the following molecule: O=C(NCc1ccccc1)c1cccc(NC(=O)N2CCSc3ncccc32)c1
Return: FALSE

Enquiry: In this assay, the call recorded for Cc1ccc(-c2nnc(Nc3ccc(OCC(N)=O)cc3)c3ccccc23)cc1S(=O)(=O)NCC1CCCO1 (configuration not stated) was what?
Return: FALSE

Enquiry: Per the records of this test, what outcome belongs to Nc1ccc(/C=C/c2ccnc3ccccc23)c([N+](=O)[O-])c1 ?
Return: FALSE

Enquiry: Could you check what this test reported for CCCS(=O)(=O)C(=C1Nc2ccccc2N1)S(=O)(=O)CCC ?
Return: FALSE

Enquiry: Dear colleague, could you share the recorded outcome for COc1cc(C(=O)NCCc2csc3nc(-c4ccccc4C)nn23)cc(OC)c1OC when you have a moment?
Return: FALSE

Enquiry: Dear all, I need the recorded test outcome for O=C(O)CSCC(=O)Nc1ccc(C(F)(F)F)cc1 , thank you.
Return: FALSE

Enquiry: # fetch the recorded call for CCOC(=O)c1cccc(NC(=O)C(Cc2ccccc2)NS(=O)(=O)c2cccc3nsnc23)c1 (configuration not stated) here
Return: FALSE

Enquiry: For COC(=O)c1cc(NC(=O)c2sc3ccccc3c2Cl)cc(C(=O)OC)c1 , what call appears in the results of this test?
Return: FALSE

Enquiry: Which outcome was entered for the molecule Cc1cccc(-n2c(SCC(N)=O)nc3c(oc4ccccc43)c2=O)c1 in this test?
Return: FALSE

Enquiry: What classification did COc1ccc(CCC(=O)OCC(=O)Nc2ccc(C)c(S(=O)(=O)N(C)C)c2)cc1 end up with in this test?
Return: TRUE

Enquiry: Per the records of this test, what outcome belongs to COc1cccc(NC(=O)c2ccc3nc(CCc4ccccc4)oc3c2)c1 ?
Return: FALSE

Enquiry: Recorded test call requested for Cc1ccc(-c2nnc(Nc3ccc(C(=O)N(C)C)cc3)c3ccccc23)cc1S(N)(=O)=O
Return: FALSE

Enquiry: Could you check what this test reported for O=C(Cc1ccccc1)Nc1cccc(C(=O)N/N=C/c2ccco2)c1 ?
Return: FALSE

Enquiry: GET /call?item= Cc1ccc(NC(=O)Cc2ccc(NC(=O)N3CCCCc4ccccc43)cc2)cc1 returns the recorded outcome of this test.
Return: FALSE

Enquiry: Recorded test outcome, item Cc1cc(/C=C2/SC(=O)N(CC(=O)OC(C)C)C2=O)c(C)n1C
Return: FALSE

Enquiry: What is the recorded call for this molecule in the test? Oc1c(CN2CCOCC2)ccc(CN2CCOCC2)c1O
Return: TRUE

Enquiry: Short answer needed: outcome of this test for O=C(Cc1ccc([N+](=O)[O-])cc1)N/N=C/c1ccco1 ?
Return: FALSE

Enquiry: Lab log entry: CCOC(=O)c1ccc(NC(=O)c2csc3c2CCCCC3)cc1 — outcome as called in the assay?
Return: FALSE

Enquiry: Which outcome was assigned to Cc1ccccc1Nc1nn2c(=O)c3ccc(C(=O)NCCc4ccc(Cl)cc4)cc3nc2s1 in this test?
Return: FALSE

Enquiry: Please let me know the test result on file for O=C(Cc1ccccc1)Nc1sc2c(c1C(=O)Nc1ccc(Br)cc1)CCC2 .
Return: FALSE

Enquiry: How did this test come out for O=C(COC(=O)c1ccccc1OCCOc1ccccc1)Nc1cccc(Br)c1 ?
Return: FALSE

Enquiry: // param item: Cc1ccc(Nc2nnc(-c3ccc(C)c(S(=O)(=O)N4CCCCC4)c3)c3ccccc23)cc1 ; yields the recorded call
Return: FALSE

Enquiry: How was O=C(c1[nH]ncc1-c1ccc(Cl)cc1)C1CO1 (configuration not stated) classified in this test?
Return: TRUE

Enquiry: I'd appreciate the recorded outcome for Cc1nn(-c2nc(-c3ccccc3)cc(C(F)(F)F)n2)c(C)c1Cl from this test.
Return: FALSE

Enquiry: Record lookup: outcome of this test for O=C(C[n+]1ccncc1)c1ccc2c(c1)CCCC2 ?
Return: FALSE

Enquiry: Call for entry CCOC(=O)N1CCc2c(sc3c2c(=O)n(-c2ccc(CC)cc2)c(=O)n3C)C1 :
Return: FALSE

Enquiry: Identify the outcome logged in this assay for the molecule shown: CCN(CC(=O)Nc1ccc(C)c(S(=O)(=O)N(C)C)c1)Cc1ccccc1
Return: FALSE

Enquiry: Outcome? Cc1cc2nn(-c3ccc(Cl)cc3)nc2cc1NC(=O)C(C)C
Return: FALSE

Enquiry: // return assay outcome for CCOc1ccc(CNC(=O)C2CCCN(S(=O)(=O)N(CC)c3ccc(OCC)cc3)C2)cc1 (configuration not stated)
Return: FALSE

Hello, the source for this data is PubChem BioAssay AID588590, in case you need it.
